target-or-system: hCB1 (Homo sapiens, UniProt P21554)
Sequence (P21554 whole entry): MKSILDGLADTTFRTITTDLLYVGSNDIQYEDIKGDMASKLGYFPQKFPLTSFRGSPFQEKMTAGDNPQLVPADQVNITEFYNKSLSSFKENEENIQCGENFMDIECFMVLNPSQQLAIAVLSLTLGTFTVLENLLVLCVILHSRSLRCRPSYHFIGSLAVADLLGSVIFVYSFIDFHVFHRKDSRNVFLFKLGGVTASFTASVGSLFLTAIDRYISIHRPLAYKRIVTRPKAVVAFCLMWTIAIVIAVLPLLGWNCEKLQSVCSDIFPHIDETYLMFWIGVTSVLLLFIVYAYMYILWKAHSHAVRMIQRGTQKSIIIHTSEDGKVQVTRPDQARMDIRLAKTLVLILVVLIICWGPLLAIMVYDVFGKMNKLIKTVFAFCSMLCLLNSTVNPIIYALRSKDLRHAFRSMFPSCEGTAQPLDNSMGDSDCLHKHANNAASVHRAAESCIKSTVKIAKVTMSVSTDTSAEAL
assay-details: bioSensAll ebBRET signaling profiling, hCB1
Type: cell-based
Design: host or cells: HEK293SL cells, transient PEI transfection
condition: Log [Compound] (M) -5.89285; single replicate values, FigS6a
readout-name: GoB hCB1
Write the value as a bare number.

// recorded GoB hCB1 for COC(=O)C(NC(=O)c1cc(C)n(-c2cccc(C(F)(F)F)c2)n1)c1cccs1 (stereo not shown) : 95.1574

Query COc1cccc(C(NC(=O)c2cc(C)n(-c3cccc(C(F)(F)F)c3)n2)c2ccco2)c1 (stereo not shown) yields GoB hCB1 of -5.891

The recorded GoB hCB1 for entry Cn1nc(-c2nnc(C(C)(C)Oc3ccc(Cl)cc3)o2)c2ccccc2c1=O equals 8.258

compound COC(=O)[C@@H]1[C@@H]2CCC[C@@H]2CN1C(=O)c1cc(C)n(-c2cccc(C(F)(F)F)c2)n1 , GoB hCB1 observed: 94.2762

====

target-or-system: CB1 (rCB1) (Rattus norvegicus, UniProt P20272)
Sequence (P20272 whole entry): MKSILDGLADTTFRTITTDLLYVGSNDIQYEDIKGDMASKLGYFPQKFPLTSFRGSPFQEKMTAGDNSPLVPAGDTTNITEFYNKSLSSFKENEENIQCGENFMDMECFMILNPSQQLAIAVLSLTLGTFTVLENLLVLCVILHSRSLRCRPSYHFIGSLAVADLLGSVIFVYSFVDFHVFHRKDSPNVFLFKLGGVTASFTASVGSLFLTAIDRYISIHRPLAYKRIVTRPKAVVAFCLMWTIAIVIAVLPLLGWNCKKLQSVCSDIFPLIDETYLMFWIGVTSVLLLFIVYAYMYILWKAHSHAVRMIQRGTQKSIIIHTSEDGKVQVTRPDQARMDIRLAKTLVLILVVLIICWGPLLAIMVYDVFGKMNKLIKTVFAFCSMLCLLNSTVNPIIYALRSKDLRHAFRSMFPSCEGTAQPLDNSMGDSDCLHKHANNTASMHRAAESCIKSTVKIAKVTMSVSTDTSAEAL
assay-details: Single-point radioligand displacement screen
Type: binding
condition: 10 µM, 1 µM or 300 nM by cell colour (not visible)
readout-name: % 1H-CP-55,940 displacement (mean) from single point screen (%)
Provide the reading as a plain figure in %.

Reported % 1H-CP-55,940 displacement (mean) from single point screen of COC(=O)C(NC(=O)c1csc(Cc2ccccc2)n1)c1cccs1 (stereo not shown) : 32.97

For this molecule ( CC(O)C1CCCN(C(=O)c2cc(Oc3cccc(Br)c3)ccn2)C1 (stereo not shown) ), measured % 1H-CP-55,940 displacement (mean) from single point screen is 17.22

Looking up COC(=O)[C@@H]1[C@@H]2CCC[C@@H]2CN1C(=O)c1cc(C)n(-c2cccc(Cl)c2)n1 (racemic) , I found its % 1H-CP-55,940 displacement (mean) from single point screen recorded as 33.86

Lookup result for Cc1nn(CC2CC2)c(C)c1Cc1nc(Cc2ccc3c(c2)OCO3)no1 ; measured % 1H-CP-55,940 displacement (mean) from single point screen: 36.27

====

Exercise: for every item that follows, state its recorded Lance Ultra cAMP pEC50.
target-or-system: hCB1 (Homo sapiens, UniProt P21554)
assay-details: Lance Ultra cAMP accumulation assay, CHO cells;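 further: human CB1R stably expressed in CHO cells, ligands co-incubated with forskolin at room temperature, read-out is lowering of forskolin-stimulated cAMP accumulation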
Format: cell-based
Parameters: expressed in transfected cells

Form field, Lance Ultra cAMP pEC50 with hCB1 (Homo sapiens, UniProt P21554), item COC(=O)C(C)(NC(=O)c1cc(C)n(-c2cccc(C(F)(F)F)c2)n1)c1cccs1 (stereo not shown) : 8.5 [8.3 – 8.7]

Tested on hCB1 (Homo sapiens, UniProt P21554), the item COC(=O)[C@](C)(NC(=O)c1cc(C)n(-c2cccc(C(F)(F)F)c2)n1)c1cccs1 showed Lance Ultra cAMP pEC50 equal to 6.3 [5.8 – 7.0]

Form: item COC(=O)[C@@](C)(NC(=O)c1cc(C)n(-c2cccc(C(F)(F)F)c2)n1)c1cccs1 ; test system hCB1 (Homo sapiens, UniProt P21554); Lance Ultra cAMP pEC50: 8.8 [8.4 – 9.2]

The measured Lance Ultra cAMP pEC50 that COC(=O)C(NC(=O)c1cc(C)n(-c2cccc(C(F)(F)F)c2)n1)c1cccs1 (stereo not shown) showed for hCB1 (Homo sapiens, UniProt P21554) is 6.5 [7.0]
